Each recorded value in this set is attributed to paper PMC5321741.

assay.text: aqueous kinetic solubility
Format: physicochemical
condition.context: Pion's buffer, aqueous buffer, kinetic from dmso stock; pH 5.0; read-out: Aqueous Solubility (Pion's Buffer)
property: solubility (µg/mL)

compound: COc1ccc2c(c1)CCC1C2CC[C@@]2(C)C1CC[C@H]2NCc1cc2ccccc2cc1O (stereo partly shown)
property: solubility
measured.number: 0.26

###

assay.text: in vivo
Design: species or system C57BL/6 mice
condition.context: C57BL/6, mouse, iv, 1 mg/kg
property: clearance (mL/min/kg)

compound: COc1ccc2c(c1)CCC1C2CC[C@@]2(C)C1CC[C@H]2NCc1cc2ccccc2cc1O (stereo partly shown)
measured.number: 29.6
